Attribution: patent US11912703B2

# assay-target: human TLR9 (Homo sapiens (Human), UniProt Q9NR96)
# Sequence (Q9NR96 26-1032): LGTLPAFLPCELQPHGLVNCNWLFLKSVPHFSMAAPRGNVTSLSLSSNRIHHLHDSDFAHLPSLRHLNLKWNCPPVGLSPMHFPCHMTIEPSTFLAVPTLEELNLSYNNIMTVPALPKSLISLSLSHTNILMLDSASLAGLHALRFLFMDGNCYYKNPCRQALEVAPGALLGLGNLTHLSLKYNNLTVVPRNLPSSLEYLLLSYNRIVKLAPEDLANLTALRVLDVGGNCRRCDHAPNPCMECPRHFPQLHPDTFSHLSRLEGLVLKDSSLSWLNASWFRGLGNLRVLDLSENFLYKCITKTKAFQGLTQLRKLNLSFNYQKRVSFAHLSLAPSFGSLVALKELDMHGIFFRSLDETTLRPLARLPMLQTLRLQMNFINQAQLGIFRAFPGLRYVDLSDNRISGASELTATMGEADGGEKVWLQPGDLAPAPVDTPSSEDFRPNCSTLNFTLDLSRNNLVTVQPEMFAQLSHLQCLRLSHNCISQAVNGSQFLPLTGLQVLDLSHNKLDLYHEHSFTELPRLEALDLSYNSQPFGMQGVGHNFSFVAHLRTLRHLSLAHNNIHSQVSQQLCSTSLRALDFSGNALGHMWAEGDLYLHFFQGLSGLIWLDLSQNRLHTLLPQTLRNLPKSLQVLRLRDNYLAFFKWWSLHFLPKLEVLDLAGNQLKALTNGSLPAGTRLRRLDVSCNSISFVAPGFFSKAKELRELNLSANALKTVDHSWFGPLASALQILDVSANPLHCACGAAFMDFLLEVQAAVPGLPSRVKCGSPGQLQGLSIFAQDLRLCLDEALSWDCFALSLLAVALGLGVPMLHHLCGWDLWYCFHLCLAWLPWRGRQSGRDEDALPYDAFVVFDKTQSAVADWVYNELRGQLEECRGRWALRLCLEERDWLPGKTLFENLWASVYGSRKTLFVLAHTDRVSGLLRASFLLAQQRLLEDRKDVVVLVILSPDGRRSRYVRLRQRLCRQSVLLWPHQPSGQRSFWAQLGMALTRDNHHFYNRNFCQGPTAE
# assay-notes: TLR9 inhibition reporter assay (HEK-Blue SEAP);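 also: SEAP driven by IFN-β minimal promoter carrying five NF-κB and AP-1 sites, 22 h at 37 °C, compounds 0.05 nM–50 µM, inhibition scaled between agonist-plus-DMSO and reference-inhibitor wells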
# experimental-setup: read-out: TLR9 IC50; HEK-Blue cells overexpressing human TLR9, ODN2006 5 nM stimulation, SEAP reporter
measurement-kind: IC50 (µM)

# compound, recorded-number
rows = [
    ("COc1cc(-c2[nH]c3cnc(C4CCN(CC(N)=O)CC4)c(F)c3c2C(C)C)cn2ncnc12 [Example 19]", 1.76),
    ("COc1cc(-c2[nH]c3cnc(C4CCN(C(=O)CN(C)C)CC4)c(F)c3c2C(C)C)cn2ncnc12 [Example 37]", 0.409),
    ("CNC(=O)CN1CCC(c2ncc3[nH]c(-c4cc(OC)c5ncnn5c4)c(C(C)C)c3c2C)CC1 [Example 2]", 0.398),
    ("CNC(=O)CN1CCC(c2ncc3[nH]c(-c4cc(C)nc(C)c4)c(C(C)C)c3c2F)CC1 [Example 150]", 6.06),
    ("COc1cc(-c2[nH]c3cnc(C4CCC(N5CCC5)CC4)cc3c2C(C)C)cn2ncnc12 (centres unmarked) [Example 324]", 0.283),
    ("Cc1c(-c2[nH]c3cnc(C4CCC(N5CC6(COC6)C5)CC4)c(C)c3c2C(C)C)cn2ncnc2c1C (centres unmarked) [Example 57]", 0.682),
    ("Cc1c(-c2[nH]c3cnc(N4CCC(N5CCC5)CC4)c(F)c3c2C(C)C)cn2ncnc2c1C [Example 51]", 2.77),
    ("COc1cc(-c2[nH]c3cnc(C4CCC(NCC(C)(C)C)C4)cc3c2C(C)C)cn2ncnc12 (centres unmarked) [Example 95]", 1.38),
    ("Cc1c(N2CCC(N3CC4(COC4)C3)CC2)ncc2[nH]c(-c3cc(C)c4ncnn4c3)c(C(C)C)c12 [Example 53]", 1.39),
    ("COc1cc(-c2[nH]c3cnc(N4CCNC[C@H]4C)c(F)c3c2C(C)C)cn2ncnc12 [compound 354]", 3.43),
]

[a] COc1cc(-c2[nH]c3cnc(N4CCN(CCS(C)(=O)=O)CC4)c(Cl)c3c2C(C)C)cn2ncnc12 [Example 294]
[b] Cc1c(-c2[nH]c3cnc(N4CCC(NCC(C)(C)O)CC4)c(C)c3c2C(C)C)cn2ncnc2c1C [Example 88]
Q. Lab notebook, comparison: a versus b , higher IC50 goes to which? State your choice using its label.
A. a
(a: 7.63 µM, b: 0.322 µM)

[a] COc1cc(-c2[nH]c3cnc(N4CCC(NC[C@@H](F)C(C)(C)O)CC4)c(C)c3c2C(C)C)cn2ncnc12 [Example 64]
[b] COc1cc(-c2[nH]c3cnc(N4CCC(N5CC6(COC6)C5)CC4)c(C)c3c2C(C)C)cn2ncnc12 [Example 139]
Q. # min-compare on IC50 between a and b Pick one and reply with its label.
A. b

[P] COCCN1CCC(c2ncc3[nH]c(-c4cc(C)c5ncnn5c4)c(C(C)C)c3c2F)CC1 [Example 183]
[Q] Cc1c(-c2[nH]c3cnc(C4CCC(N(C)C(C)C)CC4)c(F)c3c2C(C)C)cn2ncnc2c1C (centres unmarked) [Example 168]
Q. Task for the reader: decide whether P or Q has the larger IC50. State your choice using its label.
A. Q
(Q: 17.5 µM, P: 2.45 µM)
